Provenance of the data: ChEMBL document CHEMBL3507680

Experiment: Human HepG2 cell viability assay in 384 well format
Format: toxicity, cell-based
Design: dose 125 nL, time 70.5 hour; concentration not given beside the values
Settings: HepG2 cells, read-out: Inhibition
cytotoxicity at 70.5 h for assorted molecules

{"columns": ["Molecule", "cytotoxicity at 70.5 h"],
 "data": [
  ["O=C1C[C@H]2[C@@H](CCN2Cc2ccccn2)N1Cc1cccnc1", "-6.81%"],
  ["Cc1ccccc1CN1C[C@@H]2CC[C@H](C1)N(CC1CCC1)C2=O", "-4.63%"],
  ["CN1CCN(c2cc(CNC(=O)c3ccc(=O)n(C)c3)ccn2)CC1", "-15.6%"],
  ["COc1cc(F)ccc1-c1ncccc1NC(=O)C(C)C", "-7.03%"],
  ["CCC(=O)NCC(=O)NC(C)c1sc(-c2ccccc2F)nc1C (stereo unspecified)", "10.3%"]
]}

Query cytotoxicity at 70.5 h for Cc1nc(C)n(CC2CCCCN2CCCC#N)n1 (stereo unspecified) 6.75%

Query cytotoxicity at 70.5 h for Cc1nc2n(n1)CC(Nc1nc(-c3ccccc3)no1)CC2 (stereo unspecified) -0.185%

Query cytotoxicity at 70.5 h for O=C(Nc1ccc(CCN2CCC(O)CC2)cc1)Nc1cccnc1 -1.85%

Query cytotoxicity at 70.5 h for CCc1nnc(CN(CC)C(=O)C2CC(=O)N(C3CCCC3)C2)o1 (stereo unspecified) -10.6%

Query cytotoxicity at 70.5 h for CS(=O)(=O)N1CCC(c2cnc(-c3cn[nH]c3)cn2)CC1 0.854%

Query cytotoxicity at 70.5 h for COCc1cn(CC2CCN(Cc3c(C)[nH]c4ccccc34)CC2)nn1 -7.19%

====

Assay: Human HepG2 cell viability assay in 384 well format
Type: toxicity, cell-based
Set-up: dose 125 nL, time 70.5 hour; concentration not given beside the values
Details: HepG2 cells, read-out: Inhibition
Property: cytotoxicity at 70.5 h (%)
Report only the number, with the unit % understood.

Worked examples, 5 molecules total:
{"columns": ["Molecule", "Unit Abbrev", "Value Reported"],
 "data": [
  ["O=C1CCC(=O)c2oc3ccc(Cl)cc3c2N1", "%", -14],
  ["Cc1ccc(CN2CCC(n3cc(C(O)c4ccccc4)nn3)CC2)o1 (stereo unspecified)", "%", -5.94],
  ["Cc1nc(C2CCCN2CCCS(=O)(=O)c2ccccc2)no1 (stereo unspecified)", "%", -3.41],
  ["CCc1cnc(NC(=O)NC2CCN(C)CC2)s1", "%", 10.3],
  ["CC(Cn1cncn1)Nc1ccc(-c2nccn2C)nn1 (stereo unspecified)", "%", -7.86]
]}

Query cytotoxicity at 70.5 h for CS(=O)(=O)CC1(CNc2cc(C#N)c3cc(Cl)ccc3n2)CC1 -6.39

Query cytotoxicity at 70.5 h for CC(C)[C@@H](C)NC(=O)N1CCn2nc(C(=O)NCCN(C)C)cc2C1 -0.748

Query cytotoxicity at 70.5 h for CC(SCCC(=O)NC(N)=O)c1ccc(F)cc1F (stereo unspecified) -14.8

Query cytotoxicity at 70.5 h for COCC1CN(Cc2cc(C)on2)Cc2cnn(C)c21 (stereo unspecified) -3.91

Query cytotoxicity at 70.5 h for COc1cc2cc3c(nc2cc1OC)OCCN(Cc1ccco1)C3 8.51

Query cytotoxicity at 70.5 h for CN1C(=O)[C@H]2CC[C@@H]1CN(C(=O)c1nnc3n1CCCCC3)C2 -6.73
